pKi: −log10 of the molar value. Structures can show the parent of a compound that is named as a salt.
So I've got pKi readings for human cloned 5-HT6 receptors (Homo sapiens, UniProt P50406), take a look.
experimentalEndpoint: pKi

[1] CNCCOc1cc2c3c(c1)c(S(=O)(=O)c1cccc4ccccc14)nn3CCO2 [Example 12, Hydrochloride]
[2] CN1CCN(c2cc3c4c(c2)c(S(=O)(=O)c2cccc5ccccc25)nn4CCO3)CC1 [Example 6, Hydrochloride]
[3] O=S(=O)(c1cccc2ccccc12)c1nn2c3c(cc(OCCN4CCCCC4)cc13)OCC2 [Example 14]
Exercise: I would appreciate it if you could sort these 3 compounds by pKi, starting from the smallest number. I would appreciate it if you listed the labels in the requested order.
Key: 3, 1, 2
(3: 7.59, 1: 8.29, 2: 9.00)

Where these numbers come from: patent US7414051B2
